Ref: patent US20190352420A1

The following binders are listed with their measured % of max. adenosine inhibition, Colo-201 culture supernatant values.
- TARGET_UNDER_TEST: T1, non-cell-bound CD73 (human, UniProt P21589 27-549, limits assumed)
- T1 sequence (looked up): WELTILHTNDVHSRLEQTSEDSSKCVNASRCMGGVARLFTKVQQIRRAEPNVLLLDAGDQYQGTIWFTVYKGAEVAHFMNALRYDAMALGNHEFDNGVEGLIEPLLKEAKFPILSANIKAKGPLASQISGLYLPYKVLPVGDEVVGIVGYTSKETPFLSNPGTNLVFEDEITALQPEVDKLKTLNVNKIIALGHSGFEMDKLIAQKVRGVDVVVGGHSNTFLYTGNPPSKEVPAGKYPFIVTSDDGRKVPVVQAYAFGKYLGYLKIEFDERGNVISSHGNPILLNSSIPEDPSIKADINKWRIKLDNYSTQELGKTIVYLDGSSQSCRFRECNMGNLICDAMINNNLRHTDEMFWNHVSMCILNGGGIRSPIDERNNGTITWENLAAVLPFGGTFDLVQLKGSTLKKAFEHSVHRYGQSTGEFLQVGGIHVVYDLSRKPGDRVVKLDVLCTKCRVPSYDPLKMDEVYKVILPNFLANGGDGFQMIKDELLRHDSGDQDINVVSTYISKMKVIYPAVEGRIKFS
- ASSAY_EXPLANATION: cell-based or functional assay
Give the quantity in %, number only.

Here is how some binders turned out for % of max. adenosine inhibition, Colo-201 culture supernatant.
{"columns": ["BINDER", "TEST_VALUE"],
 "data": [
  ["B2 (antibody, human IgG1, kappa, L234A L235A, V domains shown, Humanized monoclonal antibody; also called anti-CD73 antibody B2) VH: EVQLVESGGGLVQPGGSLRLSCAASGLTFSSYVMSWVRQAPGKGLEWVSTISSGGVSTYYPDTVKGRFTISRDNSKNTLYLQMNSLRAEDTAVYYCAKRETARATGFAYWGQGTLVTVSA VL: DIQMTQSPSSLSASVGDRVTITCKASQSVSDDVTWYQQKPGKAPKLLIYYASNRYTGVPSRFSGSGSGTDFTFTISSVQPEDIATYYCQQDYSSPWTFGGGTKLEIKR", 62],
  ["C6 (antibody, human IgG1, kappa, L234A L235A, V domains shown, Humanized monoclonal antibody; also called anti-CD73 antibody C6) VH: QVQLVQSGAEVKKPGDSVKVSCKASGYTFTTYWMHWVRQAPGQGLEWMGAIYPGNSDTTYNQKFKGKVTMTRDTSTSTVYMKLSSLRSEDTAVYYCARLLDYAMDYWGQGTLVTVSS VL: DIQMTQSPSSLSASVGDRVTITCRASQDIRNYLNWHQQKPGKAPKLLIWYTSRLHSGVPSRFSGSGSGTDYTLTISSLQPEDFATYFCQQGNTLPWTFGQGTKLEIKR", 78],
  ["C2 (antibody, human IgG1, kappa, L234A L235A, V domains shown, Humanized monoclonal antibody; also called anti-CD73 antibody C2) VH: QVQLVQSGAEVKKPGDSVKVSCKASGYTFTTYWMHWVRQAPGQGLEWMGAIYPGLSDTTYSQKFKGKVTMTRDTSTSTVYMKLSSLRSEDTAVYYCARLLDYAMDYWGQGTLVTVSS VL: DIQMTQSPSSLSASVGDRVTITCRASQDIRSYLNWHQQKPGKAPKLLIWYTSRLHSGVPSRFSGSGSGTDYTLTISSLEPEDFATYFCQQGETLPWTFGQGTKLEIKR", 77],
  ["C4 (antibody, human IgG1, kappa, L234A L235A, V domains shown, Humanized monoclonal antibody; also called C04; inventive anti-CD73 antibody C4) VH: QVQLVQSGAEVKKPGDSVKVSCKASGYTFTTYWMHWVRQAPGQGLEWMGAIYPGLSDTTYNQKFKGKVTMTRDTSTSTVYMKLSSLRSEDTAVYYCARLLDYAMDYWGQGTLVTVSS VL: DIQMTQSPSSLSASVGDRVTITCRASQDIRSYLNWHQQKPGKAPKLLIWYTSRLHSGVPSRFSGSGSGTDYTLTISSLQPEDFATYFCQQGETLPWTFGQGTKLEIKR", 81],
  ["C1 (antibody, human IgG1, kappa, L234A L235A, V domains shown, Humanized monoclonal antibody; also called anti-CD73 antibody C1) VH: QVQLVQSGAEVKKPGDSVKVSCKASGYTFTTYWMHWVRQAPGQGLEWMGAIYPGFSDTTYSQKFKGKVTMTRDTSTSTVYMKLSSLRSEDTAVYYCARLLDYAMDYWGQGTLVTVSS VL: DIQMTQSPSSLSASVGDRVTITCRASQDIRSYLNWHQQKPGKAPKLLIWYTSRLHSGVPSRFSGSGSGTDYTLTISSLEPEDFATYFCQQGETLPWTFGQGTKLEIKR", 76],
  ["C3 (antibody, human IgG1, kappa, L234A L235A, V domains shown, Humanized monoclonal antibody; also called anti-CD73 antibody C3) VH: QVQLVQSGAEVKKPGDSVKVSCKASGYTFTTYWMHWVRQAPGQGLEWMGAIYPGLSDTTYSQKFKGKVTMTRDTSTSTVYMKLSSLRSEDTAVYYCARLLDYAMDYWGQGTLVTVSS VL: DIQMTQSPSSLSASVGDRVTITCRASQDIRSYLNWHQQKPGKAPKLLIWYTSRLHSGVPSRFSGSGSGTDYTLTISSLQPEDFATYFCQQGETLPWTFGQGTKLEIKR", 82]
]}

Endpoint output: % of max. adenosine inhibition, Colo-201 culture supernatant of C5 (antibody, human IgG1, kappa, L234A L235A, V domains shown, Humanized monoclonal antibody; also called anti-CD73 antibody C5) VH: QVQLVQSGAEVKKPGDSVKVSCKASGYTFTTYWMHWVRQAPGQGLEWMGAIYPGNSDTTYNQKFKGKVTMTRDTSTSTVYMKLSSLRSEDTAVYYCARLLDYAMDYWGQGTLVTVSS VL: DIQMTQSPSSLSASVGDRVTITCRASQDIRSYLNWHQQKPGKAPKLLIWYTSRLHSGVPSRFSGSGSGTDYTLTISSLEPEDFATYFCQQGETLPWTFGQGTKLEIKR . Value?
80
